# test.target: LTA4H (Homo sapiens)
# Sequence (P09960 whole entry, species assumed): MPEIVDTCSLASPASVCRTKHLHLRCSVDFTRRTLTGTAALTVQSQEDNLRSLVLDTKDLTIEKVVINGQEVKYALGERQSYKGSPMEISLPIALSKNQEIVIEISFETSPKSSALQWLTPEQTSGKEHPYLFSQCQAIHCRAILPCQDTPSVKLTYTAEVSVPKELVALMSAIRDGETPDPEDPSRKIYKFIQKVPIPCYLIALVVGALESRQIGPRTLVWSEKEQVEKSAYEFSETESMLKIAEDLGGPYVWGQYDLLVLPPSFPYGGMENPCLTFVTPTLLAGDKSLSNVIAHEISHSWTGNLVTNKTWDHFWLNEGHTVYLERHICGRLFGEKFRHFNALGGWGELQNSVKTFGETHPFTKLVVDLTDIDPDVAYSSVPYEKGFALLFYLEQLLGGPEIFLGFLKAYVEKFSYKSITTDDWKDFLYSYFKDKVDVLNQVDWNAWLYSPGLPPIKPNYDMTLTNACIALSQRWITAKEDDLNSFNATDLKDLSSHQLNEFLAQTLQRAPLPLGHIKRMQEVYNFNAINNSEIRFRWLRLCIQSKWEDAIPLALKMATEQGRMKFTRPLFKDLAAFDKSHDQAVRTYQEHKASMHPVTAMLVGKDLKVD
# assay.summary: In vitro inhibition of epoxide hydrolase enzymatic activity of LTA4H (LTB4 production)
measurement.kind: pIC50
# log scale: pIC50 equals minus log10 of the concentration in mol/L

Please give measured pIC50 of the following entry: O=C(O)c1ccc(CN2C[C@@H]3C[C@H]2CN3Cc2ccc(Oc3ccc(-c4ncco4)cc3)cc2)cc1 [acebilustat]
7.88

meta.source: patent US20220288034A1
